Cited source for all entries: ChEMBL document CHEMBL1154624

species: Homo sapiens; experiment: Selectivity ratio of IC50 for human LIMK2 to IC50 for human ROCK2
// reported Ratio IC50 for each item listed

Cc1c[nH]c2ncnc(N3CCN(/C(=N/C#N)Nc4ccc(F)c(Br)c4)[C@@H](C)C3)c12 = > 900
Cc1c[nH]c2ncnc(N3CCN(C(=O)Nc4ccc(F)c(Br)c4)[C@@H](C)C3)c12 = 88
Cc1c[nH]c2ncnc(N3CCN(C(=O)Nc4cccc(OC(=O)N(C)C)c4)[C@@H](C)C3)c12 = > 900

We next turn to a different molecule, shown below.
Q) Query (molecule): Cc1c[nH]c2ncnc(N3CCN(/C(=N/C#N)Nc4cccc(Br)c4)[C@@H](C)C3)c12 ; field requested: Ratio IC50
A) > 900
